method: qHTS assay to identify small molecule antagonists of the constitutive androstane receptor (CAR) signaling pathway - cell viability counter screen (AID 1224837); also: nearly all actives have a fitted effect of over 45% in size
measurement.context: HepG2-CYP2B6-hCAR viability, CellTiter-Fluor, 23 h, co-treated with 50 nM CITCO; series mostly up to 92.4 µM
Protocol: National Center for Advancing Translational Sciences [NCATS] NIH Chemical Genomics Center [NCGC] U.S. Environmental Protection Agency [EPA] National Institutes of Environmental Health Sciences [NIEHS] National Toxicology Program [NTP] […] A double-stable (hCAR and CYP2B6-2.2kb) transfected cell line, derived from human hepatoma (HepG2) cells, was utilized for the duration of the quantitative high-throughput screens. […] The fluorescence intensity in the plates was then measured using a ViewLux plate reader.
Inconclusive results are not listed. Calls of active or inactive are those of the source. Calls follow the shape of the dose curve; as a rule, active = well fitted cell-killing curve with a large enough effect in the repeat runs; inconclusive = weak or mixed curves, or effect the other way; inactive = flat fitted curve, though single readings scatter.
Give your call using only these classes: active, inactive

For orientation, consider the following solved cases.
compound="CC1CCc2nccnc21 (configuration not stated)" classification=inactive
compound=O=C(O)CN1C(=O)c2cccc3cccc(c23)C1=O classification=inactive
compound=CC12CC3CC(C)(C1)CC(N)(C3)C2 classification=inactive
compound=O=C(O)c1cc(Cl)cc(Cl)c1O classification=inactive
compound=CC(=O)OCC1=C(C(=O)O)N2C(=O)[C@@H](NC(=O)CSc3ccncc3)[C@H]2SC1 classification=inactive

// query Called result for c1ccc(CCCc2ccncc2)cc1
// result inactive

// query Also need CC(C(=O)O)c1ccc(C(=O)c2cccs2)cc1 (configuration not stated) , thanks.
// result inactive

// query Follow-up entry: CO[C@@H]1[C@@H](OC)[C@H](C)[C@@](O)(CC(=O)O)O[C@H]1[C@H](C)[C@H]1O[C@@]2(CC[C@@](C)([C@H]3CC[C@@](C)([C@@H]4O[C@@H]([C@H]5O[C@](C)(O)[C@H](C)C[C@@H]5C)C[C@@H]4OC4C[C@H](OC)[C@@H](OC)[C@H](C)O4)O3)O2)C[C@H](O)[C@H]1C (some centres not stated)
// result active

// query # iterate: CC[C@@H](CO)NCCN[C@@H](CC)CO
// result inactive

// query Ok, now COC(CC(C)CCCC(C)(C)O)OC (configuration not stated)
// result inactive

// query And what about the compound COC1CCC=CO1 (configuration not stated) ?
// result inactive

// query Repeat for the following compound: CC(C)c1ccc(C(=O)N=C(N)N)cc1S(C)(=O)=O
// result inactive

// query Queued: CC(=O)Oc1cccc(O)c1
// result inactive

// query Item: O=C(Oc1ccccc1)c1ccc2ccccc2c1O
// result inactive

// query // repeat for C1=CCC2CC=CC2C1 (configuration not stated) and report
// result inactive

// query Can you check CCCCCCCC(=O)Oc1c(Br)cc(C#N)cc1Br next?
// result inactive

// query Please do the same for Cc1ccc(Cl)cc1N as well.
// result inactive

// query // next record O=C(Nc1ccc(C(=O)O)c(O)c1)c1ccccc1
// result inactive

// query Let us now turn to COc1ccc(N)c([N+](=O)[O-])c1
// result inactive

// query Ok, now COc1cc(C(C)=O)ccc1OCCCN1CCC(c2noc3cc(F)ccc23)CC1
// result inactive

// query Further, for Oc1ccc2c(c1)Cc1ccccc1-2 ?
// result inactive

// query Could you do the same for Cc1ccc(N(CCO)CCO)cc1 , please?
// result inactive

// query Please answer likewise for C[C@@H]1[C@H](O)[C@@H](C)/C=C/C=C\C=C\C=C\C=C\C=C\C=C\[C@H](O[C@@H]2O[C@H](C)[C@@H](O)[C@H](N)[C@@H]2O)C[C@@H]2O[C@](O)(C[C@@H](O)C[C@@H](O)[C@H](O)CC[C@@H](O)C[C@@H](O)CC(=O)O[C@H]1C)C[C@H](O)[C@H]2C(=O)O (stereo in doubt)
// result inactive

// query Moving on to CCCCCCCC/C=C\CCCCCCCC(=O)OCCO
// result inactive

// query // next record CC/C=C\C/C=C\C/C=C\CCCCCCCC(=O)OCC
// result inactive

// query Now this one: Cc1ccc(NC(=O)N(C)C)cc1NC(=O)N(C)C
// result inactive

// query Similarly, CCC(CO)(CO)CO ?
// result inactive

// query What about this compound? O=C(c1ccccc1)C1CCC1
// result inactive

// query Another compound to look at: CC(=O)NCCO
// result inactive

// query Okay, and CC(=O)c1ccc[nH]1 ?
// result inactive
